Reference for the values: ChEMBL document CHEMBL1141699

- Test system: Staphylococcus aureus
- Measurement Protocol: Antibacterial activity against erythromycin-susceptible Staphylococcus aureus 29213 by broth-microdilution method
- Assay type: functional
- Condition: ATCC29213
Readings of MIC for the listed compounds

{"Smiles Str": "CC[C@H]1OC(=O)[C@H](C)[C@H]2OC/C(=N\\Oc3ccc4ccccc4c3)CCO[C@](C)(C[C@@H](C)C(=O)[C@H](C)[C@H]3NC(=O)O[C@@]31C)[C@H](O[C@@H]1O[C@H](C)C[C@H](N(C)C)[C@H]1O)[C@H]2C", "Experimental System": "Staphylococcus aureus", "Readout Units": "µg/mL", "Censoring Qualifier": "=", "MIC": 0.25}
{"Smiles Str": "CC[C@H]1OC(=O)[C@H](C)[C@H]2OC/C(=N\\OCCCCCc3ccccc3)CCO[C@](C)(C[C@@H](C)C(=O)[C@H](C)[C@H]3NC(=O)O[C@@]31C)[C@H](O[C@@H]1O[C@H](C)C[C@H](N(C)C)[C@H]1O)[C@H]2C", "Experimental System": "Staphylococcus aureus", "Readout Units": "µg/mL", "Censoring Qualifier": "=", "MIC": 0.25}
{"Smiles Str": "CC[C@H]1OC(=O)[C@H](C)[C@H]2OC/C(=N\\OCCc3ccccc3)CCO[C@](C)(C[C@@H](C)C(=O)[C@H](C)[C@H]3NC(=O)O[C@@]31C)[C@H](O[C@@H]1O[C@H](C)C[C@H](N(C)C)[C@H]1O)[C@H]2C", "Experimental System": "Staphylococcus aureus", "Readout Units": "µg/mL", "Censoring Qualifier": "=", "MIC": 0.125}
{"Smiles Str": "CC[C@H]1OC(=O)[C@H](C)[C@H]2OC/C(=N\\OCCCc3ccccc3)CCO[C@](C)(C[C@@H](C)C(=O)[C@H](C)[C@H]3NC(=O)O[C@@]31C)[C@H](O[C@@H]1O[C@H](C)C[C@H](N(C)C)[C@H]1O)[C@H]2C", "Experimental System": "Staphylococcus aureus", "Readout Units": "µg/mL", "Censoring Qualifier": "=", "MIC": 0.125}
{"Smiles Str": "CC[C@H]1OC(=O)[C@H](C)[C@H]2OC/C(=N\\Oc3ccccc3-c3ccccc3)CCO[C@](C)(C[C@@H](C)C(=O)[C@H](C)[C@H]3NC(=O)O[C@@]31C)[C@H](O[C@@H]1O[C@H](C)C[C@H](N(C)C)[C@H]1O)[C@H]2C", "Experimental System": "Staphylococcus aureus", "Readout Units": "µg/mL", "Censoring Qualifier": "=", "MIC": 0.5}
{"Smiles Str": "CC[C@H]1OC(=O)[C@H](C)[C@H]2OC/C(=N\\Oc3cccnc3)CCO[C@](C)(C[C@@H](C)C(=O)[C@H](C)[C@H]3NC(=O)O[C@@]31C)[C@H](O[C@@H]1O[C@H](C)C[C@H](N(C)C)[C@H]1O)[C@H]2C", "Experimental System": "Staphylococcus aureus", "Readout Units": "µg/mL", "Censoring Qualifier": "=", "MIC": 0.125}
{"Smiles Str": "CC[C@H]1OC(=O)[C@H](C)[C@H]2OC/C(=N/OCc3ccccc3)CCO[C@](C)(C[C@@H](C)C(=O)[C@H](C)[C@H]3NC(=O)O[C@@]31C)[C@H](O[C@@H]1O[C@H](C)C[C@H](N(C)C)[C@H]1O)[C@H]2C", "Experimental System": "Staphylococcus aureus", "Readout Units": "µg/mL", "Censoring Qualifier": "=", "MIC": 0.5}
{"Smiles Str": "CC[C@H]1OC(=O)[C@H](C)[C@H]2OC/C(=N\\Oc3cccc(-c4ccccc4)c3)CCO[C@](C)(C[C@@H](C)C(=O)[C@H](C)[C@H]3NC(=O)O[C@@]31C)[C@H](O[C@@H]1O[C@H](C)C[C@H](N(C)C)[C@H]1O)[C@H]2C", "Experimental System": "Staphylococcus aureus", "Readout Units": "µg/mL", "Censoring Qualifier": "=", "MIC": 0.125}
{"Smiles Str": "CC[C@H]1OC(=O)[C@H](C)[C@H]2OC/C(=N\\Oc3ccc(Cl)cc3)CCO[C@](C)(C[C@@H](C)C(=O)[C@H](C)[C@H]3NC(=O)O[C@@]31C)[C@H](O[C@@H]1O[C@H](C)C[C@H](N(C)C)[C@H]1O)[C@H]2C", "Experimental System": "Staphylococcus aureus", "Readout Units": "µg/mL", "Censoring Qualifier": "≤", "MIC": 0.06}
{"Smiles Str": "CC[C@H]1OC(=O)[C@H](C)[C@H]2OC/C(=N\\Oc3ccccc3)CCO[C@](C)(C[C@@H](C)C(=O)[C@H](C)[C@H]3NC(=O)O[C@@]31C)[C@H](O[C@@H]1O[C@H](C)C[C@H](N(C)C)[C@H]1O)[C@H]2C", "Experimental System": "Staphylococcus aureus", "Readout Units": "µg/mL", "Censoring Qualifier": "≤", "MIC": 0.06}
{"Smiles Str": "CC[C@H]1OC(=O)[C@H](C)[C@H]2OC/C(=N\\Oc3cccc(Cl)c3)CCO[C@](C)(C[C@@H](C)C(=O)[C@H](C)[C@H]3NC(=O)O[C@@]31C)[C@H](O[C@@H]1O[C@H](C)C[C@H](N(C)C)[C@H]1O)[C@H]2C", "Experimental System": "Staphylococcus aureus", "Readout Units": "µg/mL", "Censoring Qualifier": "≤", "MIC": 0.06}
{"Smiles Str": "CC[C@H]1OC(=O)[C@H](C)[C@H]2OC/C(=N\\OCCCCc3ccccc3)CCO[C@](C)(C[C@@H](C)C(=O)[C@H](C)[C@H]3NC(=O)O[C@@]31C)[C@H](O[C@@H]1O[C@H](C)C[C@H](N(C)C)[C@H]1O)[C@H]2C", "Experimental System": "Staphylococcus aureus", "Readout Units": "µg/mL", "Censoring Qualifier": "=", "MIC": 0.25}
{"Smiles Str": "CC[C@H]1OC(=O)[C@H](C)[C@H]2OC/C(=N\\OCc3ccccc3)CCO[C@](C)(C[C@@H](C)C(=O)[C@H](C)[C@H]3NC(=O)O[C@@]31C)[C@H](O[C@@H]1O[C@H](C)C[C@H](N(C)C)[C@H]1O)[C@H]2C", "Experimental System": "Staphylococcus aureus", "Readout Units": "µg/mL", "Censoring Qualifier": "≤", "MIC": 0.06}
{"Smiles Str": "CC[C@H]1OC(=O)[C@H](C)[C@H]2OC/C(=N\\Oc3ccccc3Cl)CCO[C@](C)(C[C@@H](C)C(=O)[C@H](C)[C@H]3NC(=O)O[C@@]31C)[C@H](O[C@@H]1O[C@H](C)C[C@H](N(C)C)[C@H]1O)[C@H]2C", "Experimental System": "Staphylococcus aureus", "Readout Units": "µg/mL", "Censoring Qualifier": "≤", "MIC": 0.06}
{"Smiles Str": "CC[C@H]1OC(=O)[C@H](C)[C@@H](O[C@H]2C[C@@](C)(OC)[C@@H](O)[C@H](C)O2)[C@H](C)[C@@H](O[C@@H]2O[C@H](C)C[C@H](N(C)C)[C@H]2O)[C@](C)(O)C[C@@H](C)C(=O)[C@H](C)[C@@H](O)[C@]1(C)O", "Experimental System": "Staphylococcus aureus", "Readout Units": "µg/mL", "Censoring Qualifier": "=", "MIC": 0.5}
{"Smiles Str": "CC[C@H]1OC(=O)[C@H](C)[C@H]2OC/C(=N\\Oc3ccc(-c4ccccc4)cc3)CCO[C@](C)(C[C@@H](C)C(=O)[C@H](C)[C@H]3NC(=O)O[C@@]31C)[C@H](O[C@@H]1O[C@H](C)C[C@H](N(C)C)[C@H]1O)[C@H]2C", "Experimental System": "Staphylococcus aureus", "Readout Units": "µg/mL", "Censoring Qualifier": "=", "MIC": 0.5}
